- Test system: SARS-CoV-2 Spike Protein (RBD)(R319-F541).mmH (SARS-CoV-2)
- Experiment summary: Luminex bead binding, supernatant
- Measurement conditions: remark: other sources report otherwise
For each of the binders below, state its Binding signal (MFI).
Just the number in MFI, nothing appended.

q: Binding signal (MFI) lookup needed for mAb11004 (antibody, V domains shown) VH: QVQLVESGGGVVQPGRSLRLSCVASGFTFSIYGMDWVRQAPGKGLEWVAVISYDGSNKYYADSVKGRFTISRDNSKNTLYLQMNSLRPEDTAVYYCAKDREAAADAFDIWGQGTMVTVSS VL: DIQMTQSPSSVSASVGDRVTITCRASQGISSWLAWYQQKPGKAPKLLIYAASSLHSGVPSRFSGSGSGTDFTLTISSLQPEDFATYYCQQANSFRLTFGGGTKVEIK , thanks.
a: 11300

q: I'd like to know its Binding signal (MFI). The binder in question is mAb11006 (antibody, V domains shown) VH: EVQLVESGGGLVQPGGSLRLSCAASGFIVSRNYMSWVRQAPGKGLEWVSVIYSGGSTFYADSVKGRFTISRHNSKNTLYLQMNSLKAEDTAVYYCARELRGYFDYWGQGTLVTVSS VL: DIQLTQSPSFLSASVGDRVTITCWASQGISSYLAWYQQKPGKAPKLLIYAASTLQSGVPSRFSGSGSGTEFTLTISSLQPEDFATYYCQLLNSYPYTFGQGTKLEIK
a: 4740

q: Entry under review: mAb11008 (antibody, V domains shown) VH: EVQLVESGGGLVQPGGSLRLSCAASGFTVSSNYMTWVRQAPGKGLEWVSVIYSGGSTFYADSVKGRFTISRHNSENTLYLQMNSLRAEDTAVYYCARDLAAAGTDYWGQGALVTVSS VL: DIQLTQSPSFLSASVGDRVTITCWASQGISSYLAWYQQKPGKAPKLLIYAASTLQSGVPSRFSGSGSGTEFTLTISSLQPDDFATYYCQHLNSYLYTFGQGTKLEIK . Reported Binding signal (MFI)?
a: 3180

q: I'd like to know its Binding signal (MFI). The binder in question is mAb10998 (antibody, V domains shown) VH: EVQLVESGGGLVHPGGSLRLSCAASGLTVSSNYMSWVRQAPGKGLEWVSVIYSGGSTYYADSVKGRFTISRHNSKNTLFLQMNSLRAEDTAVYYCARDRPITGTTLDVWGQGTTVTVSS VL: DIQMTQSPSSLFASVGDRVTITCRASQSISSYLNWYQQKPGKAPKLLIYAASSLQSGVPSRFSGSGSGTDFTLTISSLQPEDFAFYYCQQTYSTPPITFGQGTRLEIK
a: 3840
